system: HCT-15; assay: Cytotoxicity against multidrug-resistant human HCT15 cells at 1 uM by thymidine incorporation assay; type: functional
Peptide text beside a SMILES is read from it.
Exercise: state measured inhibition at 1 µM for each of the molecules provided.
Give bare numbers, in %.

{"MOLECULE": "CC(C)C[C@@H]1C(=O)N[C@H](CC(C)C)C(=O)N[C@H](C(C)C)C(=O)N[C@H](CC(C)C)C(=O)N[C@H](Cc2ccccc2)C(=O)N1C (HELM PEPTIDE1{[dF].[CC(C)C[C@H](C(=O)[*:2])N(C)[*:1]].[dL].[dV].[dL]}$PEPTIDE1,PEPTIDE1,1:R1-5:R2$$$V2.0)", "OBSERVATION_TYPE": "inhibition at 1 µM", "RECORDED_VALUE": 28}
{"MOLECULE": "CC(C)C[C@@H]1NC(=O)[C@H](Cc2ccccc2)NC(=O)[C@H](CC(C)C)NC(=O)[C@H](C(C)C)NC(=O)[C@@H](CC(C)C)NC1=O (HELM PEPTIDE1{F.L.[dL].V.L}$PEPTIDE1,PEPTIDE1,1:R1-5:R2$$$V2.0)", "OBSERVATION_TYPE": "inhibition at 1 µM", "RECORDED_VALUE": 15}
{"MOLECULE": "CC(C)C[C@@H]1NC(=O)CN(C)C(=O)[C@H](Cc2ccccc2)NC(=O)[C@H](C(C)C)NC(=O)[C@@H](C(C)C)NC1=O (HELM PEPTIDE1{F.[Sar].L.[dV].V}$PEPTIDE1,PEPTIDE1,1:R1-5:R2$$$V2.0)", "OBSERVATION_TYPE": "inhibition at 1 µM", "RECORDED_VALUE": 18}

Below are 2 molecules. Give each one its inhibition at 1 µM.
1. CC(C)C[C@@H]1NC(=O)[C@H](CC(C)C)NC(=O)[C@@H]2Cc3ccccc3CN2C(=O)[C@H](CC(C)C)NC(=O)[C@H](C(C)C)NC1=O (HELM PEPTIDE1{L.L.V.L.[Tic]}$PEPTIDE1,PEPTIDE1,1:R1-5:R2$$$V2.0)
2. CC(C)C[C@@H]1NC(=O)[C@H](C(C)C)N(C)C(=O)[C@H](CC(C)C)NC(=O)[C@H](CC(C)C)N(C)C(=O)[C@H](Cc2ccccc2)NC1=O (HELM PEPTIDE1{F.[meL].L.[meV].L}$PEPTIDE1,PEPTIDE1,1:R1-5:R2$$$V2.0)

*A*
1. 27
2. 15

Below are 3 molecules. Give each one its inhibition at 1 µM.
1. CC(C)C[C@@H]1NC(=O)[C@@H](C(C)C)NC(=O)[C@H](CC(C)C)NC(=O)[C@H](CC(C)C)N(C)C(=O)[C@H](Cc2ccccc2)NC1=O (HELM PEPTIDE1{F.[meL].L.[dV].L}$PEPTIDE1,PEPTIDE1,1:R1-5:R2$$$V2.0)
2. CC[C@@H]1NC(=O)[C@H](CC(C)C)NC(=O)[C@H](CC(C)C)NC(=O)[C@H](Cc2ccccc2)NC(=O)[C@@H](CC(C)C)NC1=O (HELM PEPTIDE1{[Abu].[dL].F.L.L}$PEPTIDE1,PEPTIDE1,1:R1-5:R2$$$V2.0)
3. CC(C)C[C@@H]1NC(=O)[C@H](Cc2ccccc2)NC(=O)[C@H](CC(C)C)NC(=O)[C@@H](CO)NC(=O)[C@H](CC(C)C)NC1=O (HELM PEPTIDE1{F.L.L.[dS].L}$PEPTIDE1,PEPTIDE1,1:R1-5:R2$$$V2.0)

*A*
1: 19; 2: 8; 3: 11

// data source = ChEMBL document CHEMBL1140733
